Numbers sourced from PubChem BioAssay (NCI).

Exercise: state measured TGI for each of the molecules provided.
Tested on: DLD-1 colon
measurementDescription: NCI tumour cell line growth inhibition, 48 h

q: Look up TGI for this molecule: Cn1cnc([N+](=O)[O-])c1Sc1nc(N)nc2c1ncn2C1OC(CO)C(O)C1O (stereo not drawn)
a: > 100 µM

q: Look up TGI for this molecule: O=C(c1ccccc1)c1c(CC(O)c2ccccn2)n(C(=O)c2ccccc2)c2ccccc12 (stereo not drawn)
a: > 100 µM

q: Look up TGI for this molecule: O=C1C2Nc3ccccc3SC2C(=O)N1c1ccc(Br)cc1 (stereo not drawn)
a: > 100 µM

q: Look up TGI for this molecule: O=C(N/C(=C\c1ccc(Cl)cc1)c1nc2ccccc2[nH]1)c1ccccc1
a: 52.2 µM

q: Look up TGI for this molecule: Cn1c(=O)[nH]c2nncnc2c1=O
a: > 625 µM

q: Look up TGI for this molecule: COc1ccc(C2=C(Cl)c3cc(OC)c(OC)cc3C2OC)cc1OC (stereo not drawn)
a: 41.8 µM

q: Look up TGI for this molecule: COC(=O)C(Cc1cc(OC)c(OC)c(OC)c1)C(=O)OC
a: > 320 µM

q: Look up TGI for this molecule: O=C(NCCCCCCCCCCCCNC(=O)c1cccc2ccccc12)c1cccc2ccccc12
a: > 100 µM

q: Look up TGI for this molecule: COc1ccc(C/C(=N/O)C(=O)NCCc2cc(Br)c(OCCCN(C)C)c(Br)c2)cc1Br
a: 25.3 µM

q: Look up TGI for this molecule: COP(=O)(OC)C(=O)N1N(c2ccc([N+](=O)[O-])cc2)C(=O)C(C)NC1(NNc1ccc([N+](=O)[O-])cc1)P(=O)(OC)OC (stereo not drawn)
a: > 100 µM

q: Look up TGI for this molecule: N#CCCN(c1ccc(C=Nc2ccccc2)cc1)S(=O)(=O)c1ccccc1
a: > 100 µM

q: Look up TGI for this molecule: Cn1cc(C(=O)c2ccccc2)c2ccccc2c1=O
a: > 100 µM

q: Look up TGI for this molecule: COC(=O)CCC(NC(=S)N/N=C(\C)c1cnc2ccccc2n1)C(=O)OC (stereo not drawn)
a: > 100 µM
